Origin of values: patent US5013722A

Measured pIC50 accompanies every entry in the list below.
Target: receptors in rat pancreas (3H-CCK-8-(SO3 H) binding) (Rattus norvegicus, UniProt P30551)
Sequence (P30551 1-444): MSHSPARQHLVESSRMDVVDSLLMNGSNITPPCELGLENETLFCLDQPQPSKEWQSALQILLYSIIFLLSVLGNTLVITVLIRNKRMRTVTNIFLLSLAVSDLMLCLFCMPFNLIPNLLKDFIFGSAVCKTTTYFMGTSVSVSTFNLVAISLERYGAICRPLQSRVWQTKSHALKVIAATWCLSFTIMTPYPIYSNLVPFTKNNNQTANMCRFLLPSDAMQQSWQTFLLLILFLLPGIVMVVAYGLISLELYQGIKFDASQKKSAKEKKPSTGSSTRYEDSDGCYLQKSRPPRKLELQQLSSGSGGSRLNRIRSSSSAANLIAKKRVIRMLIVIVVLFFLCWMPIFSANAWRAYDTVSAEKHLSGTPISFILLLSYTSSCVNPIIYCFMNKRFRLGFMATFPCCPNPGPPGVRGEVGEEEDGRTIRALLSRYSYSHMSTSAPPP
pIC50: −log10 of the molar value. Where a SMILES comes first, the peptide text is derived from it. [ ]: non-standard residue; d: D form. The star is where a group is joined. Thr(SO3H) = C[C@@H](OS(=O)(=O)O)[C@H](N)C(=O)O; sY = N[C@@H](Cc1ccc(OS(=O)(=O)O)cc1)C(=O)O; NMeF = CN[C@@H](Cc1ccccc1)C(=O)O; For = O=C*
experimental readout: pIC50

1) CSCC[C@H](NC(=O)[C@H](Cc1ccc(OS(=O)(=O)O)cc1)NC(C)=O)C(=O)N[C@@H](C)C(=O)N[C@@H](Cc1cn(C=O)c2ccccc12)C(=O)N[C@@H](CCSC)C(=O)N[C@H](C(=O)N(C)[C@@H](Cc1ccccc1)C(N)=O)[C@@H](C)OS(=O)(=O)O [Example 5] (Ac-[sY]MAW(For)M[Thr(SO3H)][NMeF]-NH2); 5.38
2) CSCC[C@H](NC(=O)[C@H](Cc1ccc(OS(=O)(=O)O)cc1)NC(C)=O)C(=O)NCC(=O)N[C@@H](Cc1cn(C=O)c2ccccc12)C(=O)N[C@@H](CCSC)C(=O)N[C@H](C(=O)N(C)[C@@H](Cc1ccccc1)C(N)=O)[C@@H](C)OS(=O)(=O)O [Example 1] (Ac-[sY]MGW(For)M[Thr(SO3H)][NMeF]-NH2); 8.03
